system_name: T1, Oct6 DNA-binding domain (BD-Oct6) (Mus musculus (B6), UniProt P21952 317-416)
T1 sequence: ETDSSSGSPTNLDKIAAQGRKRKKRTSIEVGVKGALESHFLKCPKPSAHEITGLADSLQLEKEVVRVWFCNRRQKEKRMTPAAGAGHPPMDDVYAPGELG
assay_details: EMSA; 10% glycerol, 20 mM HEPES pH 7.8, 45 mM KCl, 10 mM NaCl, 1 mM EDTA, 1 mM DTT, 0.2 ug/uL BSA, 0.1% NP-40, 50 ng poly-dIdC; 20 ng each GST protein; room temperature 30 min (heterodimers 4 C); 6% PAGE 0.25x TBE
assay_conditions: protein: recombinant; tags: GST (N-terminal, pGEX-6P-1); label: 32P-dCTP fill-in of the 5' (dG)5 overhangs of both strands (Methods; control probes are given with GGG)
parameter_measured: binding result

| binder | measured_value |
| --- | --- |
| 74 (dsDNA) DNA 1: GGGGGGACTTTCTTGGCGGATTTGGTAACGACAAAGTTAGGATCCCCC DNA 2: GGGGGATCCTAACTTTGTCGTTACCAAATCCGCCAAGAAAGTCCCCCC | no binding |
| 125 (dsDNA) DNA 1: GGGGGGGGATGCAATTGTCAGTCACCTTTCTTGAGCCTGTGGGACCCCC DNA 2: GGGGGTCCCACAGGCTCAAGAAAGGTGACTGACAATTGCATCCCCCCCC | binds |
| 75 (dsDNA) DNA 1: GGGGGGCTCTGGGTATAATTAACAATAAAATGCACCCCC DNA 2: GGGGGTGCATTTTATTGTTAATTATACCCAGAGCCCCCC | binds |
| 24 (dsDNA) DNA 1: GGGGGCTTGTATCTTTGTATGTTCACAGAAAGCAAAGTAGCGTGGCCCCC DNA 2: GGGGGCCACGCTACTTTGCTTTCTGTGAACATACAAAGATACAAGCCCCC | no binding |
| 23 (dsDNA) DNA 1: GGGGGAATCTCTATCTTACTTCTTGTAAGTGTGGACAAATGCAGGTTCCCCC DNA 2: GGGGGAACCTGCATTTGTCCACACTTACAAGAAGTAAGATAGAGATTCCCCC | no binding |
| 114 (dsDNA) DNA 1: GGGGGTGATTTTTGCAAAATTTTGTTTTGTTTCTTGAGCCCCC DNA 2: GGGGGCTCAAGAAACAAAACAAAATTTTGCAAAAATCACCCCC | no binding |

For this binder ( 12 (dsDNA) DNA 1: GGGGGAGTATGAGTTTGTATATGTTGATTAACCAAACACTCCCCC DNA 2: GGGGGAGTGTTTGGTTAATCAACATATACAAACTCATACTCCCCC ), measured binding result is no binding

For this binder ( 31 (dsDNA) DNA 1: GGGGGTCCTCTCCTTTGTTTTGTCCTCACACCCCCAGCTGACCAGGTGCCCCC DNA 2: GGGGGCACCTGGTCAGCTGGGGGTGTGAGGACAAAACAAAGGAGAGGACCCCC ), measured binding result is no binding

For this binder ( 78 (dsDNA) DNA 1: GGGGGTCTTTTGATTTGTCCGATTTAGGTTTTAAACCCCC DNA 2: GGGGGTTTAAAACCTAAATCGGACAAATCAAAAGACCCCC ), measured binding result is binds
